Test system: MDA-MB-435 human breast carcinoma
Assay: Anchorage Dependent Growth Monolayer Assay (ADGMA), MTS readout
Format: cell-based
Details: 3-day exposure, MDA-MB-435 cells; read-out: IC50 values (average ± S.D.) MDA-MB-435
value.type: pIC50
Expect pIC50 as a plain number equal to -log10 of the molar concentration.

Req: Consider the molecule `CCCCCOC(=O)O[C@@H]1CC[C@H](NC(=O)[C@H](OC)[C@H](O)[C@@H](O)[C@H](O)/C=C/C(C)(C)C)C(=O)NC1` and give its measured pIC50.
Resp: 7.15
